system: DU-145 prostate; assay: NCI tumour cell line growth inhibition, 48 h
observable: TGI (µM)
Express the result in µM but write the number alone.

Field: example entries. Status: answers known.
>  <smilesInput>
COc1ccc(/C=C2/CCS(=O)(=O)c3ccc(C)cc3C2=O)cc1OC

>  <TGI (µM)>
15.1

$$$$
>  <smilesInput>
COC(=O)C1=C(C(=O)OC)C2OC1c1cc3ccccc3cc12

>  <TGI (µM)>
21.6

$$$$

Reported TGI for N#Cc1c(N)c(C#N)c2c(c1-c1ccc(Cl)cc1)COc1ccccc1-2 was 68.6

Reported TGI for CC(=O)Oc1c(C)c2c(c3ccccc13)OC(C)(C)C2 was 31
